- ASSAYED SYSTEM: Dopamine (D-2) receptor (Cavia porcellus, UniProt H0VE83)
- Construct: Membranes were prepared from guinea pig striatum; from tissue; host or cells: guinea pig striatum membranes
- Sequence (H0VE83 1-446): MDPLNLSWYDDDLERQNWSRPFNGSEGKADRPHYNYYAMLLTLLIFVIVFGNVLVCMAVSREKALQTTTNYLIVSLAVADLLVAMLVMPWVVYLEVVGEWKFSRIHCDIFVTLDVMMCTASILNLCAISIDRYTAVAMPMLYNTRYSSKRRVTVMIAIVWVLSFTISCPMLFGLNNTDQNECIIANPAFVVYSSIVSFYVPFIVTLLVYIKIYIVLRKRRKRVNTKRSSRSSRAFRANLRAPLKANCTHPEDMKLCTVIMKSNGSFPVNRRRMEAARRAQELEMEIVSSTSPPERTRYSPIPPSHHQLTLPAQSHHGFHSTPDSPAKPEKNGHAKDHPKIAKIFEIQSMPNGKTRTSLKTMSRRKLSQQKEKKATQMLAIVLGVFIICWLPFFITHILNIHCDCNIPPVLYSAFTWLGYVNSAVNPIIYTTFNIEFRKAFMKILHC
- TEST SUMMARY: Dopamine Receptor Binding
- Format: guinea pig, striatum membranes
- ASSAY CONDITIONS: 0.15 nM [3H]spiperone, guinea pig striatum, pH 7.7, 15 min 37° C.; read-out: Receptor Binding Affinity Dopamine (D-2) (Ki class)
pKi: −log10 of the molar value.
MEASURED PARAMETER: pKi

Query (compound): O=C1c2ccccc2C(=O)N1CC1CCN(Cc2ccc(F)cc2)CC1 ; field requested: pKi < 6.30

pKi for O=C1[C@H]2CCCC[C@H]2C(=O)N1CC1CCN(CCc2ccc(Br)cc2)CC1 ? 6.30 to 7.00

Bench note: what pKi did O=C1c2ccccc2C(=O)N1CCC1CCCCN1Cc1ccccc1 (stereo not drawn) show? < 6.30

Reported pKi for CC12CC=CCC1(C)C(=O)N(CC1CCN(CCc3ccccc3)CC1)C2=O (stereo not drawn) : what is it? < 6.30

# pKi lookup, item O=C1C2C3C=CC(CCC3)C2C(=O)N1CC1CCN(CCc2ccccc2)CC1 (stereo not drawn) < 6.30

Quick one: pKi for O=C1c2ccccc2C(=O)N1CCC1CCN(Cc2ccccc2)CC1 ? < 6.30

Which pKi reading was recorded for the compound O=C1c2ccccc2C(=O)N1CC1CCCN(Cc2ccccc2)C1 (stereo not drawn) ? < 6.30

May I ask what pKi has been recorded for O=C1C2C3CCC(C3)C2CN1CC1CCN(CCc2ccccc2)CC1 (stereo not drawn) ? < 6.30

Form field: reported pKi of CC12CCCCC1(C)C(=O)N(CC1CCN(CCc3ccccc3)CC1)C2=O (stereo not drawn) 6.30 to 7.00
